TGT: T1, human folate receptor alpha (hFRα), recombinant protein (human, UniProt P15328 25-233)
T1 construct: Bought recombinant proteins (His-tagged, or biotinylated via Avi-tag, e.g. AcroBiosystems FO1-H82E2, F01-H52H1); also called hFOLR1; huFOLR1
ASSAY: BLI, periplasmic extract, FRα on AR2G biosensors
Kindly state koff for each of the entries shown.

BINDER	koff
VHH 2HFO42 (family 3) (VHH, also called 2HF042; Nb42) VHH: QVQLQESGGGLVQAGGSLRLSCAASGSGFSGMIMGWYRQVPGKQRELVATVTSHGTTNYADSVKGRFTISRDNAKNTVLLQMNSLKPEDTAVYYCNAHFPGIYWGKGTQVTVSS	0.0266 s⁻¹

Hi team, please reply with koff for each item in this list.
1. VHH 2MFR7 (family 1) (VHH, also called 2MFRO7) VHH: QVQLQESGGGLVQPGGSLRLSCAASGFPFSTYYMSWVRQAPGKGLEWVSGINSNGGVIDYADSVKGRFTISRDNAKNTLYLQLNSLKPEDTALYFCARGRAFVATMPSSLRGQGTQVTVSS
2. VHH 3MFR60 (family 10) (VHH) VHH: QVQLQESGGGLVQAGGSLRVSCAASGIIFSMNGMGWFRQAPGKQRELVASITSGGSTKYADSVKGRFTISRDNAKNTVYLQMNSLKPEDTAVYYCNIQFGSRWSTYWGQGTQVTVSS

Result ::
1. 0.108 s⁻¹
2. 0.0449 s⁻¹

The values you see were collected from patent US20250304677A1.
